In this section, each of the compounds is paired with its reported GI50.
Test system: SN12C renal
Test: NCI tumour cell line growth inhibition, 48 h

Fill in reported GI50 for this entry: COc1cc(OC)c(/C=C/c2c3ccccc3cc[n+]2C)c(OC)c1
2.31 µM

Fill in reported GI50 for this entry: O=C(Nc1ccc(F)cc1)c1cc(S(=O)(=O)Nc2nc3ccccc3o2)c(SCc2ccccc2)cc1Cl
16.4 µM

Further cases:
Fill in reported GI50 for this entry: CSc1ccc2c(c1)C(=O)c1c-2n(CCCBr)c(=O)c2cc([N+](=O)[O-])ccc12
0.893 µM

Fill in reported GI50 for this entry: O=C1NC(=O)C(c2cccc([N+](=O)[O-])c2)=C1Nc1cc(Cl)c(O)c(Cl)c1
> 25 µM

Fill in reported GI50 for this entry: CCOC(=O)c1c(NC(=O)c2cccc(C(F)(F)F)c2)sc2c(CN(C)C)c(O)ccc12
7.68 µM

Fill in reported GI50 for this entry: N=C(N)c1ccc2nc(-c3cc(CC(=O)N[C@@H](CC(=O)O)C(=O)O)cc(-c4cc(S(N)(=O)=O)ccc4O)c3O)[nH]c2c1
> 100 µM

Fill in reported GI50 for this entry: Cc1cc(C)c(NC(=O)c2sc3nc4c(cc3c2N)CN(Cc2ccccc2)CC4)c(C)c1
5.6 µM

Fill in reported GI50 for this entry: COc1ccc(CCNC(=O)c2ccc(NC3=C(Cl)C(=O)N(Cc4ccccc4)C3=O)cc2)cc1OC
23.9 µM

Fill in reported GI50 for this entry: NC(=O)c1cc(S(=O)(=O)Nc2nnc(-c3ccccc3)c(-c3ccccc3)n2)c(SCc2ccccc2)cc1Cl
> 50.8 µM
